Exercise: state measured inhibition for each of the compounds provided.
assay: inhibitors of VEEV TC-83 cytopathic effect, confirmation, Vero cells (AID 588727); conditions: VEEV TC-83 cytopathic effect inhibition, at 20 µM; active compounds read high unless noted
In all, about 350,000 compounds went through this assay and about 450 (0.13%) were called active. These entries were drawn from the full list. Potency and affinity values are given separately.
Give bare numbers, in %.

COMPOUND	TEST READOUT	ASSAY VALUE
CC(C)(C)C1CCc2c(sc3c2C(=O)NC(c2ccco2)N3)C1 (stereo not given)	inhibition	0.21
C#CCN(C[C@@H]1[C@@H](OC(=O)NC2CC2)[C@@H](OC(=O)NC2CC2)Cn2c(=O)ccc(=O)n21)S(=O)(=O)c1ccc(C)cc1	inhibition	0.49

Can you give me inhibition for all of these, one by one?
1. Cc1[nH]c2ccccc2c1/C=N/NC(=O)c1cccc(F)c1
2. COc1ccccc1Nc1ncnc2c1c(C)c(C)n2CCO
3. CC1=C(C(=O)Nc2ccccn2)C(c2ccc(Br)cc2)NC(=S)N1 (stereo not given)
4. O=C1N=C(N2CCCCC2)S/C1=C\c1ccccc1F
5. Cn1cc(CN2CCC(O)CC2)c(-c2ccc(Oc3ccccc3)cc2)n1
6. COc1cc2cc(CN(CCO)S(=O)(=O)c3ccccc3)c(=O)[nH]c2cc1OC
7. NC(=NC1CCCCC1)c1ccc(Cl)cc1
8. COC(=O)c1ccc(-n2c(C)cc(C(=O)COC(=O)CNS(=O)(=O)c3ccc(C)cc3)c2C)cc1

Data returned:
4.66
0.65
2.92
0.16
1.33
2.19
0.26
0.63

====

experiment: inhibitors of VEEV TC-83 cytopathic effect, confirmation, Vero cells (AID 588727); details: VEEV TC-83 cytopathic effect inhibition, at 20 µM; active compounds read high unless noted
The whole screen tested about 350,000 compounds, of which about 450 (0.13%) were called active. The list is a sample of the results. Measured potencies and affinities stand elsewhere.
TEST READOUT: inhibition

MOLECULE	TEST READOUT	ASSAY VALUE
Cc1c(NC(=O)c2ccc(Br)s2)c(=O)n(-c2ccccc2)n1C	inhibition	0.26% (inactive)

# map each molecule to its inhibition
1. O=C1N=C(N2CCOCC2)SC1=C1CCCCC1
2. Cc1nn(-c2ccccn2)c(C)c1Oc1ccccc1O
3. Cc1cc(C)nc(-n2nc(C)c(Oc3ccccc3O)c2C)n1
4. CCCCn1c(=S)[nH]c2ncccc2c1=O
5. C(=C\c1ccncc1)/c1ccccc1
6. CCN1C(=O)/C(=C/c2cn(-c3ccccc3)nc2-c2cccnc2)SC1=S

Data returned:
1.03% (inactive)
0.59% (inactive)
2.08% (inactive)
1.76% (inactive)
0.98% (inactive)
0.65% (inactive)

====

assay: inhibitors of VEEV TC-83 cytopathic effect, confirmation, Vero cells (AID 588727); details: VEEV TC-83 cytopathic effect inhibition, at 20 µM; active compounds read high unless noted
In all, about 350,000 compounds went through this assay and about 450 (0.13%) were called active. These entries were drawn from the full list. Results with a measured potency or affinity are listed apart.
Would you mind labelling by inhibition? At or over 2% is MET, under is NOT MET.

Consider the worked cases shown below.
MOLECULE	CLASS ASSIGNMENT
CCC(=O)N1c2ccc(S(=O)(=O)CCC(=O)NCc3cccs3)cc2CC1C (centres undefined)	NOT MET
CC(=O)Nc1ccc(C(=O)OCC(=O)c2cccc([N+](=O)[O-])c2)cc1	NOT MET
CCCCn1nnnc1SCC(=O)NCc1ccco1	NOT MET

Data request: Dear colleague, could you confirm whether COc1ccc(NC(=O)CCCN2C(=O)/C(=C\c3ccco3)SC2=S)cc1 has inhibition at or above 2%?
Data returned: MET

Data request: Tell me whether inhibition is at least 2% here: CCOC(=O)C1CCCN(c2nnnn2-c2ccccc2)C1 (centres undefined)
Data returned: NOT MET

Data request: Could you verify whether the entry COc1ccc(S(=O)(=O)N(C)c2ccc(C(=O)Nc3cccnc3)cc2)cc1 shows inhibition of no less than 2%?
Data returned: MET

Data request: Can COC(c1ccccc1)c1nc2ccccc2[nH]c1=O (centres undefined) be said to have inhibition at or above 2%?
Data returned: NOT MET

Data request: Quick check, inhibition >= 2%? O=C(c1ccc(N2CCOCC2)c([N+](=O)[O-])c1)N1CCCCC1
Data returned: MET

Data request: Is it the case that O=C1CCc2cc(S(=O)(=O)N3CCC(C(=O)NC4CCCCCCC4)CC3)ccc2N1 has inhibition reaching or exceeding 2%?
Data returned: NOT MET

Data request: Exam item: decide whether the reported inhibition for CC(C)c1c(C(=O)N/N=C/c2ccc(OCc3ccccc3)cc2)nnn1-c1nonc1N is at least 2%.
Data returned: MET

Data request: Test whether the molecule O=C(NCCN1CCOCC1)c1ccc(/C=C2\Sc3ccccc3N(Cc3ccccc3F)C2=O)cc1 records inhibition of 2% or higher.
Data returned: MET

Data request: // inclusive: inhibition at least 2%? input: CCc1ccc(Nc2nc(N3CCOCC3)nc(N3CCOCC3)n2)cc1
Data returned: NOT MET

Data request: Is the recorded value of inhibition equal to or greater than 2% for this molecule? CCc1cccc2c(SC(C)C(=O)NCC3CCCO3)nc(-c3ccccc3)nc12 (centres undefined)
Data returned: NOT MET

Data request: Hello, I need to know if CC(NC(=O)c1cccc(S(=O)(=O)N2CCN(Cc3ccccc3)CC2)c1)c1ccc(Br)cc1 (centres undefined) has measured inhibition not below 2%. Thanks!
Data returned: MET
